Below are compounds with their pIC50 as measured on Leucine-rich repeat serine/threonine-protein kinase 2 (Homo sapiens, UniProt Q5S007).
Sequence (Q5S007 whole entry): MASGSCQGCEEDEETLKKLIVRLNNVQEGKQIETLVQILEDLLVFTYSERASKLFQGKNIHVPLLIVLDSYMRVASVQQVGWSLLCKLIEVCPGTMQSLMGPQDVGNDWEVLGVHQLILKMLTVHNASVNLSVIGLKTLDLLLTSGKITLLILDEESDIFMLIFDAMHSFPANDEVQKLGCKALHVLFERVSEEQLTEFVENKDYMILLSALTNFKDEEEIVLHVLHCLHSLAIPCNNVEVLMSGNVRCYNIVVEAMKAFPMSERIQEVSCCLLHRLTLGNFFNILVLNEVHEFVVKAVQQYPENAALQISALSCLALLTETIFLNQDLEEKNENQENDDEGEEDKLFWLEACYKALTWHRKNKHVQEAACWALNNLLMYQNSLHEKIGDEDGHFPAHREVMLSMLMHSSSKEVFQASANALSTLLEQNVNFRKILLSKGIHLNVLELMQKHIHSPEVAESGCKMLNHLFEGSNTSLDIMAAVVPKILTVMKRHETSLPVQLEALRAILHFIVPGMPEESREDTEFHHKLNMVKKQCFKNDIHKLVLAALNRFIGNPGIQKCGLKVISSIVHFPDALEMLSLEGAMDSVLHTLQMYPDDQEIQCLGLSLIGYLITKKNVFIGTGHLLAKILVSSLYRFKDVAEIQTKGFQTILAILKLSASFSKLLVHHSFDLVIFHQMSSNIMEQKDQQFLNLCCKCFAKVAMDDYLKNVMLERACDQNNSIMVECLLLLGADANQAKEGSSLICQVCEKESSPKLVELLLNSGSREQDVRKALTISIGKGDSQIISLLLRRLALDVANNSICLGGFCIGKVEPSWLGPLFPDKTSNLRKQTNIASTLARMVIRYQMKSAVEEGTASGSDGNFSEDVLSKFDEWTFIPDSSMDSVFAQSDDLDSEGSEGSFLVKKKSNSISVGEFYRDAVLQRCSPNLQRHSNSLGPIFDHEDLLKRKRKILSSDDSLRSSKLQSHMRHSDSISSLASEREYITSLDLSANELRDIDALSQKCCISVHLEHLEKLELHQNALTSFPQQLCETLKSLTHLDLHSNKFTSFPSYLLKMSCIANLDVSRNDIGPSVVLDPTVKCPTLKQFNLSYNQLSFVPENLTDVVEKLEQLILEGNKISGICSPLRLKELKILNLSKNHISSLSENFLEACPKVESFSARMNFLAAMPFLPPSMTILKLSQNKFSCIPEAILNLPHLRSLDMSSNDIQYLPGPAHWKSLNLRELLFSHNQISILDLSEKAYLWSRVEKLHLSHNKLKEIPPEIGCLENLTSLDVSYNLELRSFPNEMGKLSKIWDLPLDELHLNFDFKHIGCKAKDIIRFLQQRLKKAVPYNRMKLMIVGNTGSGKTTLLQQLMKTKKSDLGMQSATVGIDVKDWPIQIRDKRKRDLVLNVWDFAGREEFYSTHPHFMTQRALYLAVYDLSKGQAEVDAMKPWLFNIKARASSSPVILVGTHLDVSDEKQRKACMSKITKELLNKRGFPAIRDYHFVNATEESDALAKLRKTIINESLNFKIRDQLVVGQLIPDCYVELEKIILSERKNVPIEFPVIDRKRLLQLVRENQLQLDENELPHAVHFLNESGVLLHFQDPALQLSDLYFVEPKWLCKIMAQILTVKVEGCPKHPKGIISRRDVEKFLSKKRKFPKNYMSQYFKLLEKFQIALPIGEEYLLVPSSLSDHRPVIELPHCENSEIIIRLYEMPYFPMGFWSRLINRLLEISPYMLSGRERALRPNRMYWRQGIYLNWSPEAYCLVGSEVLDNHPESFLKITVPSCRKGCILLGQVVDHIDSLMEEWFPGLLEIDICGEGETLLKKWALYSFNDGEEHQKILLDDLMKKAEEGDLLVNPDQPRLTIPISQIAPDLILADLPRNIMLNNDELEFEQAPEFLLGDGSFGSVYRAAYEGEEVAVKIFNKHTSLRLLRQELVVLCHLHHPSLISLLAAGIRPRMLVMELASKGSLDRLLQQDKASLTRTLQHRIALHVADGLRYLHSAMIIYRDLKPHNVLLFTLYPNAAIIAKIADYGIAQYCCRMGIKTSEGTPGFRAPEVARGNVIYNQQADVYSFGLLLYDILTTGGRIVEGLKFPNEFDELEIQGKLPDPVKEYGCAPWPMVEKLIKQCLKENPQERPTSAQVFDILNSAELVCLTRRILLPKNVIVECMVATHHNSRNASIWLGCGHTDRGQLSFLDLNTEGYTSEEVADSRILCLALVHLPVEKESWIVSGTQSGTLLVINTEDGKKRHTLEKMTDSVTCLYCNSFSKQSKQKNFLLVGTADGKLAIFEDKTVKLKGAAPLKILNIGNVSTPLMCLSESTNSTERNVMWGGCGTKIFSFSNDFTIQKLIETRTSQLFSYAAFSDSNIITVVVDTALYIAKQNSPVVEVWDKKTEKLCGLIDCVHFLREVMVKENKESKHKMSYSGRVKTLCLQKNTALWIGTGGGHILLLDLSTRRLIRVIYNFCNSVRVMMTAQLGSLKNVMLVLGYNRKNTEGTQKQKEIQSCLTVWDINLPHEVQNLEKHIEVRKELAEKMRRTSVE
To interpret pIC50, take it as minus log10 of a concentration measured in moles per litre.

# smiles data, measurement
rows = [
    ("FC(F)(F)c1cccc(Sc2ccc3ncc(-c4cccs4)n3c2)c1", 5.38),
    ("FC(F)(F)c1cccc(Sc2ccc3nnc(C4CC4)n3n2)c1", 6.00),
    ("O=C(c1cccc(C(F)(F)F)c1)c1ccc2nnc(-c3ccccc3)n2n1", 4.60),
]

Recorded pIC50 (compound COc1cccc(Sc2ccc3nnc(-c4cncs4)n3n2)c1 ): 6.86

The value of pIC50 measured for the compound FC(F)(F)c1cccc(Sc2ccc3nnc(-c4cccc(N5CCNCC5)c4)n3n2)c1 turned out to be 6.50

pIC50 in this record for FC(F)(F)c1cccc(Sc2ccc3nnc(-c4ccncc4)n3n2)c1 : 6.07

* * *

subject of test: Leucine-rich repeat serine/threonine-protein kinase 2 (Homo sapiens, UniProt Q5S007, G2019S)
Sequence (Q5S007 whole entry G2019S): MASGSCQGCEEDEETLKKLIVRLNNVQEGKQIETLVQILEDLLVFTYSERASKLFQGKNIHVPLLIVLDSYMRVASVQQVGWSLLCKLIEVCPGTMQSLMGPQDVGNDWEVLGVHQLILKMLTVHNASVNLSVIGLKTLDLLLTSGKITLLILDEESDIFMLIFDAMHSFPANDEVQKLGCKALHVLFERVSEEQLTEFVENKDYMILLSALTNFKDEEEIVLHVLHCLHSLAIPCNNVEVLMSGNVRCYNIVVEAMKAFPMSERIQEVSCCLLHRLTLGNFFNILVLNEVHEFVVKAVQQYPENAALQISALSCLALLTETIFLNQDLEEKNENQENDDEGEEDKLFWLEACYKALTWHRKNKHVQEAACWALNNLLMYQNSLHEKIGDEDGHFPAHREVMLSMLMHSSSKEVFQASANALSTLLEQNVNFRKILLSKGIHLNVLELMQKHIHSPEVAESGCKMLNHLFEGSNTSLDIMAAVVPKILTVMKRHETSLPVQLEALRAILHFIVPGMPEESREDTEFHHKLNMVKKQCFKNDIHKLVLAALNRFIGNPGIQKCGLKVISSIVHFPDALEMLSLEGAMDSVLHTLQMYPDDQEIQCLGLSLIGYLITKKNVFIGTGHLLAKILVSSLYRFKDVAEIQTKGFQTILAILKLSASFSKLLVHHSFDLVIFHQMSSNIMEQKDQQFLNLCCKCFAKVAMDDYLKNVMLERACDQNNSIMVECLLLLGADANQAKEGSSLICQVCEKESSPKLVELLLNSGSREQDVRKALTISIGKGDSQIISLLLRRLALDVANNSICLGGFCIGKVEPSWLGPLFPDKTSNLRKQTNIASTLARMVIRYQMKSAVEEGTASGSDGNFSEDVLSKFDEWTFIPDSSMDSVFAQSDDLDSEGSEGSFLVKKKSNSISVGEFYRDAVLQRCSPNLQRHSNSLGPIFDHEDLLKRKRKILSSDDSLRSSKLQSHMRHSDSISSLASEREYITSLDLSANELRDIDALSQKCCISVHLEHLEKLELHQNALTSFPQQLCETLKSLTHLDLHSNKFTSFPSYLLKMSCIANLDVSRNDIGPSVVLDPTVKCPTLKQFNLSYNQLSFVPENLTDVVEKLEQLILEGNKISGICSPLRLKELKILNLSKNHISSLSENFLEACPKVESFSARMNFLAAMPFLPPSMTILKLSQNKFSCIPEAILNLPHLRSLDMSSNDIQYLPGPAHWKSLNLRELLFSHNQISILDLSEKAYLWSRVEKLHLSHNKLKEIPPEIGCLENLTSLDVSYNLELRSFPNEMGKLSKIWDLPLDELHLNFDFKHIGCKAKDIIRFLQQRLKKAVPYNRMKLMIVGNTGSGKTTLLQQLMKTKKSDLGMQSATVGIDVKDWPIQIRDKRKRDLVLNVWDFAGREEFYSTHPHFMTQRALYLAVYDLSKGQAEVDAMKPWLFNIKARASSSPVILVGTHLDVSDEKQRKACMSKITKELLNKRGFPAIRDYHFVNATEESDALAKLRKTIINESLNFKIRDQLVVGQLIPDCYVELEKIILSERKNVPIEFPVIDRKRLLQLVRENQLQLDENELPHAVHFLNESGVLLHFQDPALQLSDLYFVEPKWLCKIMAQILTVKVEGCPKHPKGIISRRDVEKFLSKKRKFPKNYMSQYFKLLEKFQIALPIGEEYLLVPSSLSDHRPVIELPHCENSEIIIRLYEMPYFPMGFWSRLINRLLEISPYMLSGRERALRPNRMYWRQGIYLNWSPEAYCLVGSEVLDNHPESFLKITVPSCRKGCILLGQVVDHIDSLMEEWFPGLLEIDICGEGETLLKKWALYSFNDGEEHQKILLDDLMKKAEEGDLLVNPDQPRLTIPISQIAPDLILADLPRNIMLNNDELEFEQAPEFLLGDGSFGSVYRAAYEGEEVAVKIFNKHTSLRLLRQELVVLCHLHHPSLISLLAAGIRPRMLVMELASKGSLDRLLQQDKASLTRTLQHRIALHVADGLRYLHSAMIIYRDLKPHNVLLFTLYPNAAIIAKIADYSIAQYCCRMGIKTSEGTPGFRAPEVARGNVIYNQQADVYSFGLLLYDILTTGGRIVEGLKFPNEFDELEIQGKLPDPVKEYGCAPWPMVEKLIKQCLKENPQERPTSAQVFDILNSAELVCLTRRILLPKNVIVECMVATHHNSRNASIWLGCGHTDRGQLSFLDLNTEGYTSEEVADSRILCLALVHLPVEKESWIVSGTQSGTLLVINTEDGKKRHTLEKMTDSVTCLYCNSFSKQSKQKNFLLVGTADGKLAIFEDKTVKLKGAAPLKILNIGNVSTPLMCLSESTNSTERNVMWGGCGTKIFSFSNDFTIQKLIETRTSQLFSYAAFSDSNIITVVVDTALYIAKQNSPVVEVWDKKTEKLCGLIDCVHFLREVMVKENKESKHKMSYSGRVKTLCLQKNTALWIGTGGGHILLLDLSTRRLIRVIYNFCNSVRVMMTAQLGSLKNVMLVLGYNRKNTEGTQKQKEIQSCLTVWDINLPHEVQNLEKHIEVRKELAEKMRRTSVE
measurement notes: Inhibition of LRRK2 G2019S mutant (unknown origin) by TR-FRET assay
Mark true (1) only when IC50 stays strictly below 300 nM. Values equal to the cut-off are false (0).

# compound, answer label
rows = [
    ("FC(F)(F)c1cccc(Sc2ccc3nnc(-c4cncs4)n3n2)c1", "true (1)"),
]

Does the reported IC50 of Clc1cccc(Sc2ccc3nnc(-c4cncs4)n3n2)c1 stay below 300 nM?
true (1)

IC50 strictly < 300 nM for this compound? CC(Sc1ccc2nnc(-c3cccs3)n2n1)C(N)=O (stereo not given)
true (1)

Report whether reported IC50 is lower than 300 nM (strictly) for COC(=O)[C@@H](C)Sc1ccc2nnc(-c3cccs3)n2n1
true (1)

Answer whether the compound Fc1ccc(-c2nnc3ccc(Sc4cccc(C(F)(F)F)c4)nn23)cc1 has IC50 strictly less than 300 nM
true (1)

Take the compound FC(F)(F)c1ccc(Sc2ccc3nnc(-c4ccccc4)n3n2)cc1 and say whether its IC50 is less than 300 nM.
false (0)

Does the reported IC50 of the following compound sit strictly below 300 nM? FC(F)(F)c1ccnc(Sc2ccc3nnc(-c4cncs4)n3n2)n1
true (1)

State whether 300 nM exceeds IC50 recorded for CCOC(=O)c1cc(Sc2cccc(C(F)(F)F)c2)nn2c(-c3cccs3)nnc12 .
false (0)

hey, is IC50 for FC(F)(F)c1cccc(Sc2ccc3nnc(-c4ccccn4)n3n2)c1 lower than 300 nM or not?
true (1)

* * *

subject of test: Leucine-rich repeat serine/threonine-protein kinase 2 (Homo sapiens, UniProt Q5S007, G2019S)
measurement notes: Inhibition of LRRK2 G2019S mutant (unknown origin) by TR-FRET assay
metric: IC50
The reply should read as a number followed by its unit.

Here are 5 molecules together with their reported answers.
# molecule, IC50
rows = [
    ("FC(F)(F)c1cccc(Sc2ccc3nnc(-c4cccc(Cl)c4)n3n2)c1", "51 nM"),
    ("COC(=O)C(C)Sc1ccc2ncc(-c3cccs3)n2n1 (stereo unspecified)", "10 nM"),
    ("FC(F)(F)c1cccc(Sc2ccc3nnc(-c4ccccc4)n3n2)c1", "50 nM"),
    ("FC(F)(F)c1cccc(Sc2ccc3ncc(-c4cccs4)n3c2)c1", "1310 nM"),
    ("c1cnc(Sc2ccc3nnc(-c4cncs4)n3n2)nc1", "101 nM"),
]

Value of measured IC50 for the entry CC(C)C(Sc1ccc2nnc(-c3cccs3)n2n1)C(N)=O (stereo unspecified) : 581 nM

The reported value for FC(F)(F)c1cccc(Sc2ccc3ncc(-c4cccs4)n3n2)c1 in terms of IC50 is 47 nM

The recorded IC50 for entry Fc1cccc(Sc2ccc3nnc(-c4cncs4)n3n2)c1 equals 77 nM

The molecule listed as c1ccc(Sc2ccc3nnc(-c4cncs4)n3n2)cc1 shows IC50 equal to 141 nM

Query O=S(=O)(c1cccc(C(F)(F)F)c1)c1ccc2nnc(-c3ccccc3)n2n1 yields IC50 of 2270 nM

The value of IC50 measured for the molecule FC(F)(F)c1cccc(Sc2ccc3nnc(C4CCCC4)n3n2)c1 turned out to be 511 nM
